The binders listed here are annotated with their Kd.
Target: T1, Human IL2Rγ extracellular domain expressed with a C-terminal myc-myc-hexahistidine tag (human)
T1 construct: also called hIL-2Rg-MMH; hIL-2RG-MMH
T1 chain: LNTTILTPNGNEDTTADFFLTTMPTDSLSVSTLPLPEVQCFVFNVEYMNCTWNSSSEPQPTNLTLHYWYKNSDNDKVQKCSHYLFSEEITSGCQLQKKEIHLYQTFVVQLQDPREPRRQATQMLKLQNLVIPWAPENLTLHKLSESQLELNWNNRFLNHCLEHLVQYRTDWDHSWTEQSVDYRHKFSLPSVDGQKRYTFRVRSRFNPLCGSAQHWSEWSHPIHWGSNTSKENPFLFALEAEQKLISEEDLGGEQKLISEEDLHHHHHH
Assay: SPR Biacore 4000, mAb captured by anti-hFc, HBS-ET, 37C
Numbers only here, please. The scale is nM.

Some entries whose results are on file:
binder="H4H12900P (antibody, human IgG4 S228P, kappa, V domains shown, anti-IL2Rγ monoclonal antibody expressed with human IgG4 Fc) VH: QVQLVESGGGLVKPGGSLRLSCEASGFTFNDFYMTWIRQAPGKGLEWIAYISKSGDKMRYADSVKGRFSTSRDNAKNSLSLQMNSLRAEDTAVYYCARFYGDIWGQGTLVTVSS VL: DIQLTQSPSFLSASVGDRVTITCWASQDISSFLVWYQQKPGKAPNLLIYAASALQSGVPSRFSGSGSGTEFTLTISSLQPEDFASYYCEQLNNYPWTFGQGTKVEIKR" value_unit=nM val=3.66
binder="H4H12884P (antibody, human IgG4 S228P, kappa, V domains shown, anti-IL2Rγ monoclonal antibody expressed with human IgG4 Fc) VH: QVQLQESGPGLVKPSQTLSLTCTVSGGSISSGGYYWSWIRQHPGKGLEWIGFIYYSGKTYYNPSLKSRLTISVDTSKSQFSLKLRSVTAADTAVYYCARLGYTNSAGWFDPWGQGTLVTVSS VL: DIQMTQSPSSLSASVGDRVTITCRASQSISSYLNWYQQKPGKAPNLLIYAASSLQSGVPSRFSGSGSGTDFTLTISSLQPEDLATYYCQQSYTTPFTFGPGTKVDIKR" value_unit=nM val=13.1

Let us examine a further case.
Entry H4H12863P (antibody, human IgG4 S228P, kappa, V domains shown, anti-IL2Rγ monoclonal antibody expressed with human IgG4 Fc) VH: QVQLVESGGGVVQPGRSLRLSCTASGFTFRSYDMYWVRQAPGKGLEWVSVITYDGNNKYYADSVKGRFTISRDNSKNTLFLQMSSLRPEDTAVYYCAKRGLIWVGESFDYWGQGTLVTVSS VL: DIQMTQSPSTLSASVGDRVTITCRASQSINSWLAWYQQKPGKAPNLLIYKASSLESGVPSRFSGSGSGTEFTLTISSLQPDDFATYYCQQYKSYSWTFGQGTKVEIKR : reported Kd = ? 4.11
